B1: NEK8 (parent)
chain: VVGTPCYISPELCEGKPYNQKSDI

Variants of: B1
Assay: protein stability index of a GFP-peptide fusion (GPS, HEK-293T) (PSI 1-6); higher = more stable;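 note: lentivirally expressed fusions sorted by FACS into six bins by GFP to DsRed ratio, PSI derived from sequencing read proportions per bin multiplied by bin number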
Conditions: c terminus: a fixed tail appended
Reported protein stability index values follow for various variants
Number, no unit, nothing else.

Here's what some known entries look like.
[
  {
    "Chain Sequence": "VVGTPCYISPELTEGKPYNQKSDI",
    "protein stability index": 2.94
  },
  {
    "Chain Sequence": "VVGTYCYISPELCEGKPYNQKSDI",
    "protein stability index": 2.06
  }
]

Please give the measured protein stability index for this variant: `VVGTPCYISVELCEGKPYNQKSDI`
1.75

Requested read-out: protein stability index. Entry: `VVGTPCPISPELCEGKPYNQKSDI`
4.16

What protein stability index value was documented for this variant, `VVGTPCYISPELCEGCPYNQKSDI` ?
2.43

Can you look up the measured protein stability index of `VVGTPCYISPELCEGKPYNQKSFI` for me?
2.04

Any idea what protein stability index was measured for `VVGTPCYCSPELCEGKPYNQKSDI` ?
3.05
